Catalogue of viability, T/C values
- System: 857933-349-R-J2-PDC complex spheroids, viability
- ASSAY TEXT: Anticancer human tumor 857933-349-R-J2-PDC patient-derived colon adenocarcinoma cell line growth inhibition [GQUAD]
- REPORTED CONDITIONS: second compound 0.0316 µM; first compound 0.316 µM; stronger effect = lower value
# value in %; strip the unit string

{"COMPOUND": "COc1ccc([C@@H](O)c2cc(-c3ncnc4cc(N5CCOCC5)ccc34)c(F)cc2Cl)nn1 + CN(C)c1ccc(Nc2c3ccc(NC(=O)CCN4CCCC4)cc3nc3cc(NC(=O)CCN4CCCC4)ccc23)cc1", "viability, T/C [%]": 101}
{"COMPOUND": "CC1COCCN1c1cc(C2(O)CC3CCC(C2)O3)c2cnn(-c3ccn[nH]3)c2n1 (stereo not given) + CN(C)c1ccc(Nc2c3ccc(NC(=O)CCN4CCCC4)cc3nc3cc(NC(=O)CCN4CCCC4)ccc23)cc1", "viability, T/C [%]": 73.8}
{"COMPOUND": "O=c1[nH]cc(F)c(=O)[nH]1 + CN(C)c1ccc(Nc2c3ccc(NC(=O)CCN4CCCC4)cc3nc3cc(NC(=O)CCN4CCCC4)ccc23)cc1", "viability, T/C [%]": 97}
{"COMPOUND": "C=CCn1c(=O)c2cnc(Nc3ccc(N4CCN(C)CC4)cc3)nc2n1-c1cccc(C(C)(C)O)n1 + Cc1cnc(CNC(=O)c2c(=O)c3ccc(N4CCCN(C)CC4)nc3n3c2sc2ccccc23)cn1", "viability, T/C [%]": 76.8}

Inquiry: What value of viability, T/C has been reported for the following compound? O=C(c1cc(Cc2n[nH]c(=O)c3ccccc23)ccc1F)N1CCN(C(=O)C2CC2)CC1 + Cc1cnc(CNC(=O)c2c(=O)c3ccc(N4CCCN(C)CC4)nc3n3c2sc2ccccc23)cn1
Reply text: 99.9

====

Below, each entry is listed with its recorded viability, T/C.
- Tested on: 857933-349-R-J2-PDC complex spheroids, viability
- ASSAY TEXT: Anticancer human tumor 857933-349-R-J2-PDC cell line growth inhibition [GQUAD];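 note: spheroids exposed to compounds for one week before readout; percent viability relative to vehicle DMSO wells taken as 100%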
- REPORTED CONDITIONS: second compound 10 µM; first compound 0.00999 µM; stronger effect = lower value
Reply with just the number (in %).

Example results:
{"MOLECULE": "CC[C@@]1(O)C(=O)OCc2c1cc1n(c2=O)Cc2cc3c(CN(C)C)c(O)ccc3nc2-1 + Cc1cnc(CNC(=O)c2c(=O)c3ccc(N4CCCN(C)CC4)nc3n3c2sc2ccccc23)cn1", "TESTED TARGET": "857933-349-R-J2-PDC complex spheroids, viability", "READOUT UNITS": "%", "viability, T/C": 1.93}
{"MOLECULE": "Cc1[nH]c2ccccc2c1CCNCc1ccc(/C=C/C(=O)NO)cc1 + CN(C)c1ccc(Nc2c3ccc(NC(=O)CCN4CCCC4)cc3nc3cc(NC(=O)CCN4CCCC4)ccc23)cc1", "TESTED TARGET": "857933-349-R-J2-PDC complex spheroids, viability", "READOUT UNITS": "%", "viability, T/C": 70}

Inquiry: # query: viability, T/C of entry CC[C@@]1(O)C(=O)OCc2c1cc1n(c2=O)Cc2cc3c(CN(C)C)c(O)ccc3nc2-1 + CN(C)c1ccc(Nc2c3ccc(NC(=O)CCN4CCCC4)cc3nc3cc(NC(=O)CCN4CCCC4)ccc23)cc1
Reply text: 69.5

====

- Test system: 857933-349-R-J2-PDC complex spheroids, viability
- ASSAY TEXT: Anticancer human tumor 857933-349-R-J2-PDC cell line growth inhibition [GQUAD];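 note: spheroids exposed to compounds for one week before readout; percent viability relative to vehicle DMSO wells taken as 100%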
- REPORTED CONDITIONS: second compound 3.16 µM; first compound 3.16 µM; stronger effect = lower value
PROPERTY MEASURED: viability, T/C (%)
Report the value in % with no unit label.

{"MOLECULE": "CC(C)(O)C1CCC(Nc2ccc3ncc(-c4cccc(C(F)(F)F)c4)n3n2)CC1 (stereo not drawn) + Cc1[nH]c2ccc(F)cc2c1-c1nc2c3cccnc3c3ncccc3c2[nH]1", "TESTED TARGET": "857933-349-R-J2-PDC complex spheroids, viability", "viability, T/C / %": 3.45}
{"MOLECULE": "CC(C)n1c(=O)n(C)c2cnc3cc(F)c(-c4ccc(OCCCN5CCCCC5)nc4)cc3c21 + Cc1cnc(CNC(=O)c2c(=O)c3ccc(N4CCCN(C)CC4)nc3n3c2sc2ccccc23)cn1", "TESTED TARGET": "857933-349-R-J2-PDC complex spheroids, viability", "viability, T/C / %": 4.81}

Consider now this further molecule.
Inquiry: Requested read-out: viability, T/C. Entry: CC1COCCN1c1cc(C2(O)CC3CCC(C2)O3)c2cnn(-c3ccn[nH]3)c2n1 (stereo not drawn) + Cc1cnc(CNC(=O)c2c(=O)c3ccc(N4CCCN(C)CC4)nc3n3c2sc2ccccc23)cn1
Reply text: 1.5

====

- Tested on: 857933-349-R-J2-PDC complex spheroids, viability
- ASSAY TEXT: Anticancer human tumor 857933-349-R-J2-PDC cell line growth inhibition [GQUAD];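 note: spheroids exposed to compounds for one week before readout; percent viability relative to vehicle DMSO wells taken as 100%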
- REPORTED CONDITIONS: second compound 10 µM; first compound 0.00316 µM; stronger effect = lower value
Known viability, T/C of a selection of molecules

Example cases with answers are listed next.
{"MOLECULE": "CCc1c2c(nc3ccc(O)cc13)-c1cc3c(c(=O)n1C2)COC(=O)[C@]3(O)CC + Cc1[nH]c2ccc(F)cc2c1-c1nc2c3cccnc3c3ncccc3c2[nH]1", "PROPERTY MEASURED": "viability, T/C", "RESULT": "54.5%"}
{"MOLECULE": "Cn1ncnc1[C@H]1c2n[nH]c(=O)c3cc(F)cc(c23)N[C@@H]1c1ccc(F)cc1 + CN(C)c1ccc(Nc2c3ccc(NC(=O)CCN4CCCC4)cc3nc3cc(NC(=O)CCN4CCCC4)ccc23)cc1", "PROPERTY MEASURED": "viability, T/C", "RESULT": "77%"}
{"MOLECULE": "Cn1ncnc1[C@H]1c2n[nH]c(=O)c3cc(F)cc(c23)N[C@@H]1c1ccc(F)cc1 + Cc1cnc(CNC(=O)c2c(=O)c3ccc(N4CCCN(C)CC4)nc3n3c2sc2ccccc23)cn1", "PROPERTY MEASURED": "viability, T/C", "RESULT": "2.35%"}
{"MOLECULE": "CC[C@@]1(O)C(=O)OCc2c1cc1n(c2=O)Cc2cc3c(CN(C)C)c(O)ccc3nc2-1 + CN(C)c1ccc(Nc2c3ccc(NC(=O)CCN4CCCC4)cc3nc3cc(NC(=O)CCN4CCCC4)ccc23)cc1", "PROPERTY MEASURED": "viability, T/C", "RESULT": "76.8%"}

Inquiry: Could you tell me which viability, T/C is on file for Cc1[nH]c2ccccc2c1CCNCc1ccc(/C=C/C(=O)NO)cc1 + Cc1[nH]c2ccc(F)cc2c1-c1nc2c3cccnc3c3ncccc3c2[nH]1 ?
Reply text: 89.4%

====

- System: 857933-349-R-J2-PDC complex spheroids, viability
- ASSAY TEXT: Anticancer human tumor 857933-349-R-J2-PDC cell line growth inhibition [GQUAD];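 note: spheroids exposed to compounds for one week before readout; percent viability relative to vehicle DMSO wells taken as 100%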
- REPORTED CONDITIONS: second compound 10 µM; first compound 0.00316 µM; stronger effect = lower value
Response field label: string, one of True (viability, T/C strictly below 70%) or False.

{"COMPOUND": "Cc1[nH]c2ccccc2c1CCNCc1ccc(/C=C/C(=O)NO)cc1 + Cc1cnc(CNC(=O)c2c(=O)c3ccc(N4CCCN(C)CC4)nc3n3c2sc2ccccc23)cn1", "LABEL": "True"}
{"COMPOUND": "CC[C@@]1(O)C(=O)OCc2c1cc1n(c2=O)Cc2cc3c(CN(C)C)c(O)ccc3nc2-1 + Cc1cnc(CNC(=O)c2c(=O)c3ccc(N4CCCN(C)CC4)nc3n3c2sc2ccccc23)cn1", "LABEL": "True"}
{"COMPOUND": "CCc1c2c(nc3ccc(O)cc13)-c1cc3c(c(=O)n1C2)COC(=O)[C@]3(O)CC + CN(C)c1ccc(Nc2c3ccc(NC(=O)CCN4CCCC4)cc3nc3cc(NC(=O)CCN4CCCC4)ccc23)cc1", "LABEL": "True"}
{"COMPOUND": "CC[C@@]1(O)C(=O)OCc2c1cc1n(c2=O)Cc2cc3c(CN(C)C)c(O)ccc3nc2-1 + Cc1[nH]c2ccc(F)cc2c1-c1nc2c3cccnc3c3ncccc3c2[nH]1", "LABEL": "False"}
{"COMPOUND": "Cn1ncnc1[C@H]1c2n[nH]c(=O)c3cc(F)cc(c23)N[C@@H]1c1ccc(F)cc1 + Cc1[nH]c2ccc(F)cc2c1-c1nc2c3cccnc3c3ncccc3c2[nH]1", "LABEL": "False"}

Inquiry: In plain terms, does Cc1[nH]c2ccccc2c1CCNCc1ccc(/C=C/C(=O)NO)cc1 + CN(C)c1ccc(Nc2c3ccc(NC(=O)CCN4CCCC4)cc3nc3cc(NC(=O)CCN4CCCC4)ccc23)cc1 come in under 70% for viability, T/C?
Reply text: False

Inquiry: Check if viability, T/C falls below 70% for CCc1c2c(nc3ccc(O)cc13)-c1cc3c(c(=O)n1C2)COC(=O)[C@]3(O)CC + Cc1cnc(CNC(=O)c2c(=O)c3ccc(N4CCCN(C)CC4)nc3n3c2sc2ccccc23)cn1 .
Reply text: True
